Target: catalytic domain (JH1) of human JAK2 (Homo sapiens, UniProt O60674)
Sequence (O60674 826-1132): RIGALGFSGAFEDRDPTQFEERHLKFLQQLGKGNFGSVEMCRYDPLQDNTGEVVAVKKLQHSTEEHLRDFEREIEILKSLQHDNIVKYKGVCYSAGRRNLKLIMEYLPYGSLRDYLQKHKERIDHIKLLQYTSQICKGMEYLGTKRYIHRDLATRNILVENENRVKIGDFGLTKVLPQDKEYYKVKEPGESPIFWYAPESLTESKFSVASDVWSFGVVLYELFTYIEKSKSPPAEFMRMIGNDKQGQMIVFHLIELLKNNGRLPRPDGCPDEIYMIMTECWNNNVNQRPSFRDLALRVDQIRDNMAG
Test: JAK2 LanthaScreen JH1 Binding Assay
Design: JH1, amino acids 826-1132; FLAG (N); purchased Carna Biosciences 08-445-20N; host or cells: baculovirus expression system
Settings: read-out: JH1 BIND
Protocol: Example A. JAK2 LanthaScreen JH1 Binding Assay JAK2 JH1 binding assay utilizes catalytic domain (JH1, amino acids 826-1132) of human JAK2 expressed as N-terminal FLAG-tagged, biotinylated protein in a baculovirus expression system (Carna Biosciences, Product #08-445-20N). The assay was conducted in black 384-well polystyrene plates in a final reaction volume of 20 μL. […] After incubation for 2 hours at 25° C., LanthaScreen signals were read on a PHERAstar FS plate reader (BMG LABTECH). […]
assay-metric: IC50

For reference, reported IC50 for "COc1c(Nc2nc(NC(=O)C3CC3)nn3ccc(-c4cnn(Cc5ccc(NS(C)(=O)=O)cc5)c4)c23)cccc1-c1ncn(C)n1" stands at > 10 µM

For reference, reported IC50 for "COc1c(Nc2nc(NC(=O)C3CC3)nn3ccc(-c4cnn(Cc5cccnc5)c4)c23)cccc1C(F)(F)F" stands at > 10 µM

For reference, reported IC50 for "CCS(=O)(=O)Nc1ccc(Cn2cc(-c3ccn4nc(NC(=O)C5CC5)nc(Nc5cccc(-c6ncn(C)n6)c5OC)c34)cn2)cc1" stands at > 10 µM

For reference, reported IC50 for "COc1c(Nc2nc(NC(=O)C3CC3)nn3ccc(-c4cnn(Cc5ccc(C(=O)O)cc5)c4)c23)cccc1C(F)(F)F" stands at 1 to 10 µM

For reference, reported IC50 for "CCS(=O)(=O)Nc1ccc(Cn2cc(-c3ccn4nc(NC(=O)C5CC5)nc(Nc5cccc(C(F)(F)F)c5OC)c34)cn2)cc1" stands at > 10 µM

For reference, reported IC50 for "COc1c(Nc2nc(NC(=O)C3CC3)nn3ccc(-c4cnn(Cc5ccc(NS(=O)(=O)C6CC6)cc5)c4)c23)cccc1C(F)(F)F" stands at > 10 µM
